systemName: 1-phosphatidylinositol 4,5-bisphosphate phosphodiesterase gamma-1 (Homo sapiens) (UniProt P19174)
Sequence (P19174 whole entry, looked up): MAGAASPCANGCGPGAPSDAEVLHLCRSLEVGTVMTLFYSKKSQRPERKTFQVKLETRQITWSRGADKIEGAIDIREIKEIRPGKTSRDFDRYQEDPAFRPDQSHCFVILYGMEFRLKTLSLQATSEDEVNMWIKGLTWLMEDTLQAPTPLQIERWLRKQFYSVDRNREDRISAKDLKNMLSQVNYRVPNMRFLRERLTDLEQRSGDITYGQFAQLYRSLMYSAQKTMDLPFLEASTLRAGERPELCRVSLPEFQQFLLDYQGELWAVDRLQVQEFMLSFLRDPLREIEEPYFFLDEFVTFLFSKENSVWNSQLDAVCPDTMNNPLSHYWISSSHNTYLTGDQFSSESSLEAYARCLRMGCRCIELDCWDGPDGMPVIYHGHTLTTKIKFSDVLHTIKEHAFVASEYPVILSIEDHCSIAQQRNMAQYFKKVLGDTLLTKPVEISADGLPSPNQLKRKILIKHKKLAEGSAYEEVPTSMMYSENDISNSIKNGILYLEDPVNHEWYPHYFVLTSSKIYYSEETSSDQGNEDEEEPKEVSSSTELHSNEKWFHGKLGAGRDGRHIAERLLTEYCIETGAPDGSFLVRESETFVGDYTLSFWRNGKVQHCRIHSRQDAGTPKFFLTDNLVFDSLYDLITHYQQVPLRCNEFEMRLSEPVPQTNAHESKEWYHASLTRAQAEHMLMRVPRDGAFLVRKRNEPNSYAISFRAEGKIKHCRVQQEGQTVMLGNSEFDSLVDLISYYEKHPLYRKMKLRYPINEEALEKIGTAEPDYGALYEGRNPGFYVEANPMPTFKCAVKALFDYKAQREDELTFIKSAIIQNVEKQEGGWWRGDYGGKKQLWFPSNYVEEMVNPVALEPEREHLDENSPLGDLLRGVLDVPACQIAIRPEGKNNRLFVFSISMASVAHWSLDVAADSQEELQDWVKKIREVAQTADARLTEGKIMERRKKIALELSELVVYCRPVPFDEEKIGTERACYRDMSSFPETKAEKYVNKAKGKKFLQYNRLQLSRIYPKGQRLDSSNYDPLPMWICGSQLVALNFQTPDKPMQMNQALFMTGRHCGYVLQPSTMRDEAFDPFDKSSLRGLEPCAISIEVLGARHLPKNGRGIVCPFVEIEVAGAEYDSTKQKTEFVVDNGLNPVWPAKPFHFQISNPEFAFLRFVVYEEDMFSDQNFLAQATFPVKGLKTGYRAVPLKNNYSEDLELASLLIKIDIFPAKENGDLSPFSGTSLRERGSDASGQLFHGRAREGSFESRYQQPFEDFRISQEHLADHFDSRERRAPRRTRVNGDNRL
assay: PLC-gamma1 enzyme inhibitors, primary screen, biochemical, fluorescence, purified enzyme (AID 720700)
measurementContext: purified PLC-gamma1, fluorogenic substrate, at 12.2 µM
Among all 370,000 compounds or so, about 3,100 (0.84%) were called active. Cut-off read from the data, not from the text of the source: active = inhibition above about 9.5%; inactive = the rest. For the sample, actives were picked, then their nearest neighbours and some compounds at random.
Outcomes: yes (1) = active, no (0) = inactive

- CCC(=O)c1c(CC)c2n3c1=CC[C@H]3CC(Br)C=2 (stereo partly drawn): no (0)
- CC(=O)OC12CCCN(C1)/C(=C/c1ccncc1)C2 (stereo not drawn): no (0)
- Nc1nnc(SCC(=O)OCc2ccc(Cl)c(Cl)c2)s1: yes (1)
- O=C(CNCCO)NC12CC3CC(CC(C3)C1)C2: no (0)
- C=CCN1C(=O)[C@H](CC(=O)N2CCN(C(=O)OCC)CC2)[C@@]2(C(=O)OCC)CCCC=C12: no (0)
- CC1(C(=O)NCc2ccccc2)CSCC(=O)N1CCCN1CCOCC1 (stereo not drawn): yes (1)
- COC(=O)c1ccc(CSc2nnc(N)s2)o1: no (0)
- C=C1C(C(C)C)N(C)C2=NC(c3ccccc3)CC(=O)N12 (stereo not drawn): no (0)
- CC1(C(=O)NCc2ccccc2)CSCC(=O)N1CCCn1ccnc1 (stereo not drawn): no (0)
- CC(C)N1CCCCC(NC(=O)c2ccc3ccccc3c2)C1=O (stereo not drawn): no (0)
- CC(C)CNC(=O)OCc1cn(Cc2ccc(F)cc2)nn1: no (0)
- Cc1ccc(-c2csc(N(Cc3ccco3)C(=O)c3cccs3)n2)cc1: no (0)
- O=C(c1ccc2c(c1)OCO2)N1CCNc2ccccc2C1: yes (1)
- O=C(C[C@H]1C(=O)N(c2ccc(F)c(F)c2)C[C@@H]1Cc1ccccc1)Nc1ccccc1: yes (1)
- Cc1ccc(C(=O)C2CCN(CC(=O)NCCC(C)C)CC2)cc1: no (0)
- CNC(=O)C[C@H]1C(=O)N(c2ccc(OC)cc2)C[C@@H]1Cc1ccccc1: no (0)
- CCOc1ccccc1NC(=O)C12CC3CC(C1)CC(c1ccc(C)cc1)(C3)C2: no (0)
- O=C(NCC12CC3CC(C1)CC(CNC(=O)N1CCCC1)(C3)C2)N1CCCC1: no (0)
- O=C(NC12CC3CC(CC(C3)C1)C2)N1CCCC(CO)C1 (stereo not drawn): yes (1)
- CN(CCO)Cc1csc2ccc(Br)cc12: no (0)
- Cc1ccc(C23CC4CC(CC(C(=O)NCC(=O)O)(C4)C2)C3)cc1: yes (1)
- CCC(C)CN1C(=O)CSCC1(C)C(=O)NCc1ccccc1 (stereo not drawn): no (0)
- O=C(C(=O)N1CCN(c2ccccc2)CC1)c1ccc2c(c1)OCO2: no (0)
